assay method text: Activation of ATP-sensitive potassium channel opening in albino rat aorta rings assessed as relaxation of KCl-induced contraction of aorta rings
Type: tissue-based
pEC50: −log10 of the molar value.
Would you please tag the item y when its pEC50 is 4 or above, and n when it is below?

>>> class("CC(C)NC1=NS(=O)(=O)c2c[n+]([O-])ccc2S1")
"n"
>>> class("CC(C)NC1=NS(=O)(=O)c2cc(C(F)(F)F)ccc2S1")
"y"
>>> class("CC(C)NC1=NS(=O)(=O)c2cc([N+](=O)[O-])ccc2S1")
"n"
>>> class("O=S1(=O)N=C(Nc2ccccc2)Sc2ccc(C(F)(F)F)cc21")
"y"
>>> class("O=[N+]([O-])c1ccc2c(c1)S(=O)(=O)N=C(Nc1ccccc1)S2")
"n"
>>> class("CC(SC1=NS(=O)(=O)c2cc(I)ccc2N1)c1ccccc1 (stereo unspecified)")
"y"
>>> class("O=S1(=O)N=C(NC2CCCC2)Sc2ccc(C(F)(F)F)cc21")
"y"
>>> class("O=[N+]([O-])c1ccc2c(c1)S(=O)(=O)N=C(NC1CC1)S2")
"n"

Please find the next molecule below.
Q: Hi team, for "O=[N+]([O-])c1ccc2c(c1)S(=O)(=O)N=C(NCC1CC1)S2" , is the recorded pEC50 at or above 4?
A: y

---

# Activity per record follows
Organism: Rattus norvegicus
assay method text: Activation of ATP-sensitive potassium channel opening in albino rat pancreatic islets assessed as inhibition of glucose-induced insulin release measured as residual insulin release at 10 uM after 90 mins by radioimmunoassay
Give a bare numeral; the unit % is implied.

>>> quantitative_result("CC(C)NC1=NS(=O)(=O)c2cc(Cl)ccc2N1")
4.8

Q: For the molecule "O=[N+]([O-])c1ccc2c(c1)S(=O)(=O)N=C(NCC1CC1)S2" , what Activity is on record?
A: 90.2

---

# EC50 per record follows
System: Aorta
assay method text: Myorelaxant activity in albino rat aorta rings assessed as relaxation of 80 mM KCl-induced contraction of aorta rings
Type: functional, tissue-based

# example entries with known answers
>>> result("CC(SC1=NS(=O)(=O)c2cc(F)ccc2N1)c1ccccc1 (racemic)")
"27.5 µM"
>>> result("COc1ccc(CCN(C)CCCC(C#N)(c2ccc(OC)c(OC)c2)C(C)C)cc1OC (centres undefined)")
"0.052 µM"
>>> result("CC(NC1=NS(=O)(=O)c2cc(C(F)(F)F)ccc2S1)c1ccccc1 (racemic)")
"14.9 µM"

Now for a further compound.
Q: // fetch Aorta EC50 for CC1=Nc2ccc(Cl)cc2S(=O)(=O)N1 [DIAZOXIDE]
A: > 300 µM

---

assay method text: Dissociation constant, pKa of the compound in water at 25 degC
Format: physicochemical
endpoint: pKa
I only need the number, thanks.

Q: For the compound "CC(C)NC1=NS(=O)(=O)c2cc(Cl)ccc2S1" , what pKa is on record?
A: 9.76

---

Species: Rattus norvegicus
assay method text: Activation of ATP-sensitive potassium channel opening in albino rat pancreatic islets assessed as inhibition of glucose-induced insulin release measured as residual insulin release at 10 uM after 90 mins by radioimmunoassay
Would you please tag the item rule met when its Activity is 80% or above, and rule not met when it is below?

Completed entries (count: 3):
>>> class("CC(SC1=NS(=O)(=O)c2cc(Br)ccc2N1)c1ccccc1 (stereo unspecified)")
"rule met"
>>> class("CC(NC1=NS(=O)(=O)c2cc([N+](=O)[O-])ccc2S1)c1ccccc1 (stereo unspecified)")
"rule met"
>>> class("CC(NC1=NS(=O)(=O)c2cc(S(C)(=O)=O)ccc2S1)c1ccccc1 (stereo unspecified)")
"rule met"

Q: Hi team, for CC1=Nc2ccc(Cl)cc2S(=O)(=O)N1 [DIAZOXIDE] , is the recorded Activity at or above 80%?
A: rule not met

Q: Hi team, for "O=S1(=O)N=C(Nc2ccccc2)Sc2ccc(C(F)(F)F)cc21" , is the recorded Activity at or above 80%?
A: rule not met

Q: Hi team, for "CC(C)NC1=NS(=O)(=O)c2cc(C#N)ccc2S1" , is the recorded Activity at or above 80%?
A: rule met

Q: Hi team, for "O=[N+]([O-])c1ccc2c(c1)S(=O)(=O)N=C(Nc1ccccc1)S2" , is the recorded Activity at or above 80%?
A: rule met

Q: Hi team, for "CC(C)NC1=NS(=O)(=O)c2cc(C(=O)O)ccc2S1" , is the recorded Activity at or above 80%?
A: rule not met

Q: Hi team, for "CCNC1=NS(=O)(=O)c2cc([N+](=O)[O-])ccc2S1" , is the recorded Activity at or above 80%?
A: rule met

Q: Hi team, for "O=[N+]([O-])c1ccc2c(c1)S(=O)(=O)N=C(NC1CC1)S2" , is the recorded Activity at or above 80%?
A: rule met

---

assay method text: Activation of ATP-sensitive potassium channel opening in albino rat aorta rings assessed as relaxation of KCl-induced contraction of aorta rings
Format: tissue-based
endpoint: EC50

>>> result("CC(C)NC1=NS(=O)(=O)c2cc(Cl)ccc2S1")
"> 100 µM"
>>> result("O=[N+]([O-])c1ccc2c(c1)S(=O)(=O)N=C(NCc1ccccc1)S2")
"> 30 µM"
>>> result("CC(C)NC1=NS(=O)(=O)c2cccc(Cl)c2S1")
"> 30 µM"
>>> result("CC(C)NC1=NS(=O)(=O)c2cc(C(=O)O)ccc2S1")
"> 200 µM"

Q: For the compound "C[C@@H](NC1=NS(=O)(=O)c2cc(C(F)(F)F)ccc2S1)c1ccccc1" , what EC50 is on record?
A: > 30 µM

Q: For the compound "CCNC1=NS(=O)(=O)c2cc([N+](=O)[O-])ccc2S1" , what EC50 is on record?
A: > 30 µM

Q: For the compound "CC(C)NC1=NS(=O)(=O)c2ccc(Cl)cc2S1" , what EC50 is on record?
A: > 30 µM

Q: For the compound "CS(=O)(=O)c1ccc2c(c1)S(=O)(=O)N=C(Nc1ccccc1)S2" , what EC50 is on record?
A: > 30 µM

Q: For the compound "CC(C)NC1=NS(=O)(=O)c2cc(S(C)(=O)=O)ccc2S1" , what EC50 is on record?
A: > 200 µM

---

Species: Rattus norvegicus
assay method text: Activation of ATP-sensitive potassium channel opening in albino rat pancreatic islets assessed as inhibition of glucose-induced insulin release measured as residual insulin release at 10 uM after 90 mins by radioimmunoassay
Label 1.0 when Activity is strictly below 90%; at or above that, label 0.0.

Completed entries (count: 6):
>>> class("CCC(C)NC1=NS(=O)(=O)c2cc([N+](=O)[O-])ccc2S1 (stereo unspecified)")
0.0
>>> class("CC(C)NC1=NS(=O)(=O)c2cccc(Cl)c2S1")
1.0
>>> class("CCC(C)NC1=NS(=O)(=O)c2cc(C(F)(F)F)ccc2S1 (stereo unspecified)")
0.0
>>> class("CC(SC1=NS(=O)(=O)c2cc(Cl)ccc2N1)c1ccccc1 (stereo unspecified)")
1.0
>>> class("CC(C)NC1=NS(=O)(=O)c2cc([N+](=O)[O-])ccc2S1")
0.0
>>> class("CC(SC1=NS(=O)(=O)c2ccc(Cl)cc2N1)c1ccccc1 (stereo unspecified)")
1.0

Q: I wonder whether CC(SC1=NS(=O)(=O)c2cc(F)ccc2N1)c1ccccc1 (stereo unspecified) has Activity below 90%. Can you tell?
A: 0.0

Q: I wonder whether "CC(C)NC1=NS(=O)(=O)c2cc(C(F)(F)F)ccc2S1" has Activity below 90%. Can you tell?
A: 0.0

Q: I wonder whether "O=[N+]([O-])c1ccc2c(c1)S(=O)(=O)N=C(NCc1ccccc1)S2" has Activity below 90%. Can you tell?
A: 1.0
